Tested on: COLO 205 colon
Experiment: NCI-60 one-dose screen, 48 h (100 = growth as untreated, 0 = no growth, -100 = all killed)
Settings: 10 µM unless noted
Description: Cells are grown in 96 well plates and exposed to the test compound for 48 hours. Compounds are tested at a single concentration, which is 10^-5 M for most compounds. The reported endpoint is percent growth (GI% or GIPRCNT), where numbers from 0 - 100% represent growth inhibition, and numbers from -100% - 0 represent cell death. For example, a value of 40 represents 60% growth inhibition. A value of 0 means no net growth occurred over the course of the experiment. […]
About 83,000 compounds went through this panel and 20% of them were active in at least one assay; those are over-represented in the sample as a whole.
molecules and their reported growth

{"molecule": "CC1(C)N=C(N)N=C(N)N1c1ccc(CCCCc2ccccc2)c(Cl)c1", "growth / %": -75.8}
{"molecule": "CCOC(=O)c1cnc2c(N=Nc3ccc(OC)cc3)c(N)nn2c1N", "growth / %": 106}
{"molecule": "Cc1c(Cl)cccc1C(=O)Nc1nc2c(s1)CN(C(=O)c1ccc(C(F)(F)F)cc1)CC2", "growth / %": 6.86}
{"molecule": "CNCc1cccc2c1OCCOCCOCCNS(=O)(=O)c1ccc(cc1)-c1cnc(N)c(n1)C(=O)N2", "growth / %": -18.7}
{"molecule": "O=C(NC(Cc1nnc2n(Cc3ccccc3)c(=O)c3c4c(sc3n12)CCCC4)c1ccccc1)c1ccccc1 (centres undefined)", "growth / %": 107}
{"molecule": "Cc1nn(-c2ccccc2)c(N)c1N=C1NC(=O)/C(=C/c2ccc(Br)cc2)S1", "growth / %": 101}
{"molecule": "CCOc1c(OC)cc2c(c1O)C(=O)N[C@@H]1[C@@H](O)[C@@H](O)[C@H](O)C[C@@H]21", "growth / %": 115}
{"molecule": "COc1cc(/C=C/C(=O)c2ccc(-n3cc(CN4CCN(c5cc6c(cc5F)c(=O)c(C(=O)O)cn6C5CC5)CC4)nn3)cc2)ccc1O", "growth / %": 106}
{"molecule": "O=C(Nc1ccccc1[N+](=O)[O-])c1ccc(Cl)c(Cl)c1", "growth / %": 110}

---

System: NCI-H226 lung
Assay: NCI-60 one-dose screen, 48 h (100 = growth as untreated, 0 = no growth, -100 = all killed)
Settings: 10 µM unless noted
Description: Growth inhibition of the NCI-H226 human Non-Small Cell Lung tumor cell line is measured as a screen for anti-cancer activity. Cells are grown in 96 well plates and exposed to the test compound for 48 hours. Compounds are tested at a single concentration, which is 10^-5 M for most compounds. The reported endpoint is percent growth (GI% or GIPRCNT), where numbers from 0 - 100% represent growth inhibition, and numbers from -100% - 0 represent cell death. […]
The panel holds about 83,000 compounds, 20% with a hit somewhere; the sample as a whole holds those more often. The source made the active and inactive calls. How the source made its calls: active means growth percent below 10; inactive means the rest.
compounds and their reported growth

{"compound": "CC1(C)CC2=C3C=C[C@@H]4[C@@]5(C)CCC(=O)C(C)(C)[C@@H]5CC[C@@]4(C)[C@]3(C)CC[C@@]2(C(=O)O)C[C@H]1O", "growth": "25.5% (inactive)"}
{"compound": "N#CC1=C(N)Oc2ccc3ccccc3c2C1c1ccc([N+](=O)[O-])cc1 (centres undefined)", "growth": "87.4% (inactive)"}
{"compound": "CCNc1ccc(-c2nc3ccccc3n3cccc23)cc1", "growth": "68.8% (inactive)"}
{"compound": "O=C1/C(=C/c2ccc(O)c(O)c2)COc2ccc(-c3ccccc3)cc21", "growth": "36.2% (inactive)"}
{"compound": "COc1ccc(C2=NN(C(C)=O)C(c3cn(-c4ccccc4)nc3-c3ccc(Cl)cc3)C2)cc1 (centres undefined)", "growth": "33.6% (inactive)"}
{"compound": "Cc1ccc(/C=C/C(=O)c2ccc(-n3cc(CN4CCN(c5cc6c(cc5F)c(=O)c(C(=O)O)cn6C5CC5)CC4)nn3)cc2)cc1", "growth": "84.6% (inactive)"}
{"compound": "Cc1ccc(NC(=O)Cn2c(Br)nc3c2c(=O)n(C)c(=O)n3C)cc1", "growth": "-13.2% (active)"}
{"compound": "Cn1cc(-c2csc(-c3cn(CCCN4CCOCC4)c4ccccc34)n2)c2cccnc21", "growth": "75.7% (inactive)"}
{"compound": "COc1ccc(C2=CC(c3cc(OC)c(OC)c(OC)c3)n3ncnc3N2)cc1 (centres undefined)", "growth": "51.1% (inactive)"}

---

system: M14 melanoma; experiment: NCI-60 one-dose screen, 48 h; settings: 10 µM unless noted
Compounds without any hit were thinned out: in the full panel of roughly 83,000, 20% have a hit. Calls of active or inactive are those of the source. How the source made its calls: active means growth percent below 10; inactive means the rest.
Outcome codes: True (active), False (inactive)

{"molecule": "CCOC(=O)C(=CNc1cnc(Nc2ccc(N3CCOCC3)cc2)nc1Oc1ccc(OC)cc1)C(=O)OCC", "className": "False"}
{"molecule": "N#Cc1cccc(C2C3=C(COC3=O)N(CCO)c3cc4c(cc32)CCC4)c1 (centres undefined)", "className": "True"}
{"molecule": "N=c1c(S(=O)(=O)c2ccccc2)cc2c(=O)n3ccccc3nc2n1CC1CCCO1 (centres undefined)", "className": "False"}
{"molecule": "C/C(=N\\O)[C@@H]1CC[C@]2(CO)CC[C@]3(C)[C@H](CC[C@@H]4[C@@]5(C)CCCNC(C)(C)[C@@H]5CC[C@]43C)[C@@H]12", "className": "False"}

---

system: MDA-MB-231 breast; experiment: NCI-60 one-dose screen, 48 h (100 = growth as untreated, 0 = no growth, -100 = all killed); conditions: 10 µM unless noted
About 83,000 compounds went through this panel and 20% of them were active in at least one assay; those are over-represented in the sample as a whole.
Class key for growth values: small value = under 50%, mid value = from 50% up to 90%, large value = 90% and over

{"itemSmiles": "CN1C(=O)/C(=C/c2ccc(C(=O)Nc3ncc(Cc4cccc(Cl)c4)s3)cc2)SC1=S", "className": "mid value"}
{"itemSmiles": "COc1cc(C(=O)c2c(-c3ccccc3)oc3c(OC)cccc23)cc(OC)c1OC", "className": "small value"}
{"itemSmiles": "COc1ccc(NC(=O)Nc2ccc(OCCCCCC(=O)NO)cc2)cc1", "className": "large value"}
{"itemSmiles": "Cc1ccc(C(=O)Nc2cccc(C#Cc3cccc4[nH]nc(N)c34)c2)cc1C(F)(F)F", "className": "mid value"}
{"itemSmiles": "CCCC(CC)(C(=O)Nc1ccc2nc(C)cc(N)c2c1)C(=O)Nc1ccc2nc(C)cc(N)c2c1", "className": "large value"}
{"itemSmiles": "CN(CCC(=O)c1ccccc1)CCC(=O)c1ccccc1", "className": "large value"}
{"itemSmiles": "O=C1/C(=C\\c2ccccn2)c2ccccc2N1c1c(Cl)cccc1Cl", "className": "small value"}
{"itemSmiles": "CSC(SC)=C(C#N)c1nc2ccccc2s1", "className": "mid value"}
{"itemSmiles": "CCCCCCCCCCCCCCCCCCOc1ccccc1CC(=O)NCC[N+]1(C)CCCCC1", "className": "small value"}

---

System: A498 renal
Experiment: NCI-60 one-dose screen, 48 h
Settings: 10 µM unless noted
Experimental: Growth inhibition of the A498 human tumor cell line is measured as a screen for anti-cancer activity. Cells are grown in 96 well plates and exposed to the test compound for 48 hours. Compounds are tested at a single concentration, which is 10^-5 M for most compounds. The reported endpoint is percent growth (GI% or GIPRCNT), where numbers from 0 - 100% represent growth inhibition, and numbers from -100% - 0 represent cell death. For example, a value of 40 represents 60% growth inhibition. […]
About 83,000 compounds went through this panel and 20% of them were active in at least one assay; those are over-represented in the sample as a whole. The source made the active and inactive calls. The calls were made as follows: active = growth percent below 10; inactive = the rest.
Outcome codes: active, inactive

{"molecule": "O=C(C1CCCCC1)[C@@H]1[C@]2(C(=O)NC3CCCCC32)[C@@H]2CCCN2[C@@]12C(=O)NC1CCC(Cl)CC12 (some centres undefined)", "className": "active"}
{"molecule": "COc1ccc(C2=NN(C(C)=O)C(c3cn(-c4ccccc4)nc3-c3ccc(Cl)cc3)C2)cc1 (centres undefined)", "className": "inactive"}
{"molecule": "COC1=C(C)C(=O)N2[C@@H]1[C@H](c1ccccc1)OC21C=CC(=O)C=C1", "className": "inactive"}
{"molecule": "COC(=O)C(Cc1ccccc1)NC(=O)c1ccc(NC(=O)c2[nH]c(C)c(Cl)c2Cl)c(OC(C)C)c1 (centres undefined)", "className": "inactive"}
{"molecule": "Nc1[nH]c(=S)nc2oc(-c3ccccc3)c(-c3ccccc3)c12", "className": "inactive"}
{"molecule": "COc1cccc(Nc2ncnc3cc(NC(=O)CCl)ccc23)c1", "className": "active"}
{"molecule": "C=Cc1cnc(Nc2ccc(OC)cc2)nc1NCCCNC(=O)C1CCC1", "className": "inactive"}
{"molecule": "Fc1ccc(Cn2cc(CSc3nc4ccccc4o3)nn2)cc1", "className": "inactive"}
{"molecule": "Cc1ccc2c(=O)cc(C(=O)Nc3sc4c(c3C(=O)NCc3cccnc3)CCCC4)oc2c1C", "className": "inactive"}
